Target: C-C chemokine receptor type 5 (Homo sapiens)
Experiment: Inhibition of human CCR5 expressed in CHO cells assessed as inhibition of RANTES-stimulated [35S]GTPgammaS binding
Provide the reported pIC50 of each item.
Answer as the number alone; pIC50 is minus log10 of concentration in mol/L.

Ask: Which pIC50 reading was recorded for the molecule C=CCN(C(=O)NCc1ccc(C(F)(F)F)cc1)[C@H]1C[C@H]2CC[C@@H](C1)N2C[C@H]1CN(C(=O)C2CCCC2)C[C@]1(O)c1cccc(F)c1 ?
Result: 8.17

Ask: Follow-up item: C=CCN(C(=O)NCc1ccc(C(F)(F)F)cc1)C1CCN(C[C@H]2CN(C(=O)C3CCCC3)C[C@]2(O)c2cccc(F)c2)CC1
Result: 8.86

Ask: Follow-up item: C=CCN(C(=O)NCc1ccc(C(F)(F)F)cc1)[C@@H]1C[C@H]2CC[C@@H](C1)N2C[C@H]1CN(C(=O)C2CCCC2)C[C@]1(O)c1cccc(F)c1
Result: 7.84

Ask: Follow-up item: C=CCN(C(=O)NCc1ccc(S(=O)(=O)N(C)C)cc1)[C@H]1C[C@H]2CC[C@@H](C1)N2C[C@H]1CN(C(=O)C2CCCC2)C[C@]1(O)c1cccc(F)c1
Result: 7.94

Ask: Follow-up item: C=CCN(C(=O)NCc1ccc(C(F)(F)F)cc1)C1CCN(C[C@H]2CN(C(=O)C3CCCC3)C[C@]2(O)c2ccc(F)cc2)CC1
Result: 7.42

Ask: Follow-up item: C=CCN(C(=O)NCc1ccc(F)cc1)[C@H]1C[C@H]2CC[C@@H](C1)N2C[C@H]1CN(C(=O)C2CCCC2)C[C@]1(O)c1cccc(F)c1
Result: 7.52

###

Provide the reported IC50 of each item.
Target: C-C chemokine receptor type 5 (Homo sapiens, UniProt P51681)
Sequence (P51681 whole entry): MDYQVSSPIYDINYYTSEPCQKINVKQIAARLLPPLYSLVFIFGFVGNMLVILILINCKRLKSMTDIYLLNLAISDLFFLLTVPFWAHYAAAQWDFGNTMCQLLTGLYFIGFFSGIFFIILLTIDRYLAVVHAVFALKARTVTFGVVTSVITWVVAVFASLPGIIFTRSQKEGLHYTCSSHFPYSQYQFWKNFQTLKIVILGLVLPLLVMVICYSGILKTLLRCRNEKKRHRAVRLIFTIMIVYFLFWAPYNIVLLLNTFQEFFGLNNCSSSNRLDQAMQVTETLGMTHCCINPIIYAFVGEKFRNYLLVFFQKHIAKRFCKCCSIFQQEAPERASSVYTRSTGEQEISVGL
Assay: Inhibition of human CCR5 expressed in CHO cells assessed as inhibition of RANTES-stimulated [35S]GTPgammaS binding

Ask: Which IC50 reading was recorded for the compound C=CCN(C(=O)OCc1ccc([N+](=O)[O-])cc1)C1CCN(C[C@H]2CN(C(=O)C3CCCC3)C[C@]2(O)c2cccc(F)c2)CC1 ?
Result: 8.85 nM

Ask: Follow-up item: C=CCN(C(=O)Cc1ccc(S(=O)(=O)NC)cc1)C1CCN(C[C@H]2CN(C(=O)C3CCCC3)C[C@]2(O)c2ccc(F)cc2)CC1
Result: 11.2 nM

Ask: Follow-up item: C=CCN(C(=O)OCc1ccc([N+](=O)[O-])cc1)C1CCN(C[C@H]2CN(C(=O)C3CCCC3)C[C@]2(O)c2ccc(F)cc2)CC1
Result: 30 nM

Ask: Follow-up item: C=CCN(C(=O)Cc1ccc(S(=O)(=O)NC)cc1)C1CCN(C[C@H]2CN(C(=O)C3CCCC3)C[C@]2(O)c2cccc(F)c2)CC1
Result: 2.98 nM

Ask: Follow-up item: C=CCN(C(=O)OCc1ccc([N+](=O)[O-])cc1)C1CCN(C[C@H]2CN(C(=O)C3CCCC3)C[C@]2(O)c2ccc(OC)cc2)CC1
Result: 318 nM

Reference source: ChEMBL document CHEMBL1221291
